ASSAY COMMENT: Primary qHTS for inhibitors of SARS-S pseudo-typed particle cell entry (AID 1479145); also: nearly all actives have a fitted effect of over 45% in size
CONDITION: SARS-S pseudotyped particle cell entry, luciferase reporter; series mostly up to 57.1 µM
Results filed as inconclusive are left out. Activity calls are given as the source filed them. Calls follow the shape of the full dose curve.
Outcome codes: active, inactive

# COMPOUND, CATEGORY LABEL
rows = [
    ("CN/C(=C\\[N+](=O)[O-])NCCSCc1ccc(CN(C)C)o1", "inactive"),
    ("C[n+]1ccccc1/C=N/O", "inactive"),
    ("CS(=O)(=O)OCCCCOS(C)(=O)=O", "inactive"),
    ("COC(=O)C(c1ccccc1Cl)N1CCc2sccc2C1 (stereo not given)", "inactive"),
    ("O=C1c2cccc3c2[C@H](CCC3)CN1[C@@H]1CN2CCC1CC2", "inactive"),
    ("CC1=C(C(=O)O)N2C(=O)[C@@H](NC(=O)[C@H](N)c3ccccc3)[C@H]2SC1", "inactive"),
    ("COc1cc2nc(N3CCN(C(=O)C4CCCO4)CC3)nc(N)c2cc1OC (stereo not given)", "inactive"),
    ("Cc1ccc(-n2[nH]c(C)c(N=Nc3cccc(-c4cccc(C(=O)O)c4)c3O)c2=O)cc1C", "inactive"),
    ("CCCSc1ccc2nc(NC(=O)OC)[nH]c2c1", "inactive"),
    ("CCOc1ccc2ccccc2c1C(=O)N[C@@H]1C(=O)N2[C@@H]1SC(C)(C)[C@@H]2C(=O)O", "inactive"),
    ("CN(CCOc1ccc(NS(C)(=O)=O)cc1)CCc1ccc(NS(C)(=O)=O)cc1", "inactive"),
    ("O=P1(NCCCl)OCCCN1CCCl (stereo not given)", "inactive"),
    ("O=c1[nH]cnc2c1ncn2[C@H]1CC[C@@H](CO)O1", "inactive"),
    ("CCCNC(=O)NS(=O)(=O)c1ccc(Cl)cc1", "inactive"),
    ("NS(=O)(=O)c1cc2c(cc1Cl)NC=NS2(=O)=O", "inactive"),
    ("CCn1cc(C(=O)O)c(=O)c2cc(F)c(N3CCNCC3)cc21", "inactive"),
    ("NCC(O)c1ccc(O)cc1 (stereo not given)", "inactive"),
    ("CC(CCc1ccccc1)NC(C)C(O)c1ccc(O)cc1 (stereo not given)", "inactive"),
    ("CCCCN1C[C@H](O)[C@@H](O)[C@H](O)[C@H]1CO", "inactive"),
    ("Clc1ccc(C(c2ccccc2Cl)C(Cl)Cl)cc1 (stereo not given)", "inactive"),
    ("CC(C)NCC(O)c1ccc(O)c(O)c1 (stereo not given)", "inactive"),
    ("CC(C)C[C@H](NC(=O)[C@H](Cc1ccccc1)NC(=O)c1cnccn1)B(O)O", "inactive"),
    ("O=C(c1ccc(OCCN2CCCCC2)cc1)c1c(-c2ccc(O)cc2)sc2cc(O)ccc12", "active"),
    ("CC(C)NCC(O)c1ccccc1Cl (stereo not given)", "inactive"),
    ("OC(Cn1cncn1)(Cn1cncn1)c1ccc(F)cc1F", "inactive"),
    ("C[C@@H](O)[C@H]1C(=O)N2C(C(=O)O)=C(S[C@@H]3CN[C@H](C(=O)N(C)C)C3)[C@H](C)[C@H]12", "inactive"),
    ("CCCCOCCOCCOCc1cc2c(cc1CCC)OCO2", "inactive"),
    ("CC(C)c1nc(CN(C)C(=O)N[C@H](C(=O)N[C@@H](Cc2ccccc2)C[C@H](O)[C@H](Cc2ccccc2)NC(=O)OCc2cncs2)C(C)C)cs1", "inactive"),
    ("CCN1CCN(C(=O)N[C@@H](C(=O)N[C@@H]2C(=O)N3C(C(=O)O)=C(CSc4nnnn4C)CS[C@H]23)c2ccc(O)cc2)C(=O)C1=O", "inactive"),
    ("CN(N=O)C(=O)N[C@@H]1[C@@H](O)[C@H](O)[C@@H](CO)O[C@@H]1O", "inactive"),
    ("COc1cc2ncnc(Nc3ccc(F)c(Cl)c3)c2cc1OCCCN1CCOCC1", "active"),
    ("CN(C)c1nc(N(C)C)nc(N(C)C)n1", "inactive"),
    ("O[C@@H]1CO[C@H]2[C@@H]1OC[C@@H]2O", "inactive"),
    ("CC(C)(C)CC(C)(C)c1ccc(O)cc1", "inactive"),
    ("COCCCOc1cc(C[C@@H](C[C@H](N)[C@@H](O)C[C@H](C(=O)NCC(C)(C)C(N)=O)C(C)C)C(C)C)ccc1OC", "inactive"),
    ("NC(=O)c1cn(Cc2c(F)cccc2F)nn1", "inactive"),
    ("CNCC[C@@H](Oc1ccccc1C)c1ccccc1", "inactive"),
    ("O=C(O)P(=O)(O)O", "inactive"),
    ("O=P(O)(O)C(O)(Cc1cccnc1)P(=O)(O)O", "inactive"),
    ("C[C@H]1[C@H](NC(=O)/C(=N/OC(C)(C)C(=O)O)c2csc(N)n2)C(=O)N1S(=O)(=O)O (stereo in doubt)", "inactive"),
    ("C1N2CN3CN1CN(C2)C3", "inactive"),
    ("CC(C)(C)NCC(O)c1cc(Cl)c(N)c(Cl)c1 (stereo not given)", "inactive"),
    ("C[C@]12CC[C@H]3[C@@H](CCC4=CC(=O)CC[C@@H]43)[C@@H]1CC[C@@H]2OC(=O)CCc1ccccc1", "inactive"),
    ("O=C1Cc2cc(CCN3CCN(c4nsc5ccccc45)CC3)c(Cl)cc2N1", "inactive"),
    ("Cc1cc(C)cc(OCC2CNC(=O)O2)c1 (stereo not given)", "inactive"),
]

====

ASSAY COMMENT: qHTS of pediatric cancer cell lines to identify multiple opportunities for drug repurposing: Primary screen for NB-EBc1 cells (AID 1347095)
CONDITION: NB-EBc1 neuroblastoma viability, CellTiter-Glo luminescence, 48 h; series mostly up to 46 µM
Procedure: Drug repurposing or repositioning has been offered as a strategy for drug development in oncology programs. This approach has special potential for childhood cancers and other rare or orphan diseases, where the expected return on new drug development has been a disincentive to pharmaceuticals. […] We employed a titration-based paradigm (quantitative high-throughput screening or qHTS), where all compounds were tested at multiple concentrations for their effect on cell viability. […]
Records with an inconclusive call do not appear. Activity calls are given as the source filed them. Calls follow the shape of the dose curve; as a rule, active = well fitted cell-killing curve with a large enough effect; inconclusive = small, poorly fitted or top-dose-only effect; inactive = no such curve, though single readings can be large or run the other way.
Outcome codes: YES for active, NO for inactive

# COMPOUND, CATEGORY LABEL
rows = [
    ("CN(C)CCN(C)CCc1ccc(Cl)c(Cl)c1", "NO"),
    ("Cc1sc2c(c1C)C(c1ccc(Cl)cc1)=N[C@@H](CC(=O)OC(C)(C)C)c1nnc(C)n1-2", "YES"),
    ("CC(CCc1ccccc1)NC(C)C(O)c1ccc(O)cc1 (stereo not given)", "NO"),
    ("CN1CCN(C(=O)O[C@H]2c3nccnc3C(=O)N2c2ccc(Cl)cn2)CC1", "NO"),
    ("CC[C@@H](CO)NC(=O)[C@@H]1C=C2c3cccc4c3c(cn4C)C[C@H]2N(C)C1", "NO"),
]

====

CONDITION: Ebola virus entry assay, ratio channel
Calls of active or inactive are those of the source.
Outcome codes: true (1) for active, false (0) for inactive

# MOL, CATEGORY LABEL
records = [
    ("CC[C@]1(O)C[C@H]2CN(CCc3c([nH]c4ccccc34)[C@@](C(=O)OC)(c3cc4c(cc3OC)N(C=O)[C@H]3[C@@](O)(C(=O)OC)[C@H](OC(C)=O)[C@]5(CC)C=CCN6CC[C@]43[C@@H]65)C2)C1", "false (0)"),
    ("CC(C)OC(=O)C(C)(C)Oc1ccc(C(=O)c2ccc(Cl)cc2)cc1", "false (0)"),
    ("C=C(CC)C(=O)c1ccc(OCC(=O)O)c(Cl)c1Cl", "true (1)"),
    ("CCOP(=S)(OCC)Oc1cc(C)nc(C(C)C)n1", "false (0)"),
]

====

ASSAY COMMENT: qHTS Assay for Identification of Small Molecule Inducers of Hypoxia Response (AID 2120); also: 0% is about no effect
CONDITION: hypoxia response reporter cells, beta-lactamase ratio readout; series mostly up to 104 µM
Records with an inconclusive call do not appear. The source made the active and inactive calls. Calls follow the shape of the dose curve; as a rule, active = well fitted curve in the direction sought with a large enough effect in the signal ratio, with a control signal flat (not every such curve was filed as active); inconclusive = small, poorly fitted or top-dose-only effect, or a change in a side signal; inactive = no such curve, though single readings can be large or run the other way; the % refers to the signal ratio.

# COMPOUND, outcome
data = [
    ("CCCC(C)(COC(N)=O)COC(=O)NC(C)C (centres undefined)", "inactive"),
    ("Oc1ccccc1-c1ccccc1", "inactive"),
    ("NCC(O)c1ccc(O)cc1 (centres undefined)", "inactive"),
    ("CNCC(O)c1ccc(O)cc1 (centres undefined)", "inactive"),
]

====

ASSAY COMMENT: Cellular Toxicity (caspase-3) HepG2 (AID 654);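 as to caspase-3 activation: cells exposed to compound for 16 hours before reading; 0% = DMSO alone and 100% = caspase signal from 100 µM tamoxifen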
CONDITION: HepG2 caspase-3 activation, luminescence; series mostly up to 92.2 µM
Description: NIH Chemical Genomics Center [NCGC] NIH Molecular Libraries Screening Centers Network [MLSCN] National Institutes of Environmental Health Sciences [NIEHS] National Toxicology Program [NTP] We have developed a 1536-well cell-based assay for quantitative high throughput screening (qHTS) against a number of cell lines to determine in vitro caspase 3/7 of small molecules. […] 8. Detection; Luminescence; Viewlux plate reader […]
Activity calls are given as the source filed them. Calls come from the whole dose curve; as a rule, active = well fitted activation curve with a large enough effect; inconclusive = small, poorly fitted or top-dose-only effect; inactive = flat fitted curve, though single readings scatter.
Outcome codes: active, inactive

# COMPOUND, CATEGORY LABEL
measured = [
    ("CNCC(O)c1ccc(O)cc1 (stereo not drawn)", "inactive"),
    ("N[C@@H](Cc1ccc(N(CCCl)CCCl)cc1)C(=O)O", "active"),
    ("Oc1cccc2cccnc12", "inactive"),
    ("Oc1ccc(Cl)cc1Cc1ccccc1", "inactive"),
    ("NCC(O)c1ccc(O)cc1 (stereo not drawn)", "inactive"),
    ("CCCC(C)(COC(N)=O)COC(=O)NC(C)C (stereo not drawn)", "inactive"),
    ("Oc1ccccc1-c1ccccc1", "inactive"),
    ("CCOP(=S)(OCC)Oc1cc(C)nc(C(C)C)n1", "inactive"),
]
